# protocol-details: CCK-8 cell viability of THP-1 cells after 48 h compound treatment in HaCaT/THP-1 co-culture
# Type: cell-based, human
# condition-info: human, THP-1 cells in co-culture with HaCaT cells, 1000 μg/mL, 48 h, THP-1, individual replicate values
Below: a set of entries, each annotated with reported viability at 48 h, 1000 μg/mL.

{"columns": ["molecule", "viability at 48 h, 1000 μg/mL / %"],
 "data": [
  ["Sc1nc2ccccc2s1", 12.9],
  ["Oc1cccc(O)c1", 58.1],
  ["CC(C)(C)c1cc(O)ccc1O [THBQ, Tert-butylhydroquinone]", 15.2],
  ["O=CCc1ccccc1", 18.6],
  ["N#CCCC(Br)(C#N)CBr (centres unmarked)", 12.4],
  ["CC(C)CCCC(C)CCCC(C)CCCCC(C)CCCC(C)CCCC(C)C (centres unmarked)", 91.2],
  ["O=c1c(-c2ccccc2)c1-c1ccccc1", 30.7],
  ["OCC(O)CO", 98.4]
]}

###

# protocol-details: CCK-8 cell viability of THP-1 cells after 48 h compound treatment in HaCaT/THP-1 co-culture
# Type: cell-based, human
# condition-info: human, THP-1 cells in co-culture with HaCaT cells, 250 μg/mL, 48 h, THP-1, individual replicate values
Below: a set of entries, each annotated with reported viability at 48 h, 250 μg/mL.

{"columns": ["compound", "viability at 48 h, 250 μg/mL / %"],
 "data": [
  ["O=CCc1ccccc1 [phenylacetaldehyde, Phenylacetaldehyde]", 19.5],
  ["N#CCCC(Br)(C#N)CBr (centres unmarked) [bromoml, 1,2-dibromo-2,4-dicyanobutane]", 11.9],
  ["CC(C)CCCC(C)CCCC(C)CCCCC(C)CCCC(C)CCCC(C)C (centres unmarked) [squalane, Squalane]", 83.7],
  ["O=c1c(-c2ccccc2)c1-c1ccccc1 [diphenylcyclopropenone, Diphenylcyclopropenone]", 29.3],
  ["CC(C)(C)c1cc(O)ccc1O [THBQ, Tert-butylhydroquinone]", 26.6],
  ["Sc1nc2ccccc2s1 [2-mercaptobenzothiazole]", 24.8],
  ["OCC(O)CO [glycerol, Glycerol]", 93.5],
  ["Oc1cccc(O)c1 [resorcinol, Resorcinol]", 59.3]
]}

###

# protocol-details: CCK-8 cell viability of THP-1 cells after 48 h compound treatment in HaCaT/THP-1 co-culture
# Format: cell-based, human
# condition-info: human, 15.625 μg/mL, 48 h, THP-1, individual replicate values

{"columns": ["compound", "viability at 48 h, 15.625 μg/mL [%]"],
 "data": [
  ["C=CCc1ccc(O)c(OC)c1 [eugenol, Eugenol]", 84],
  ["O=[N+]([O-])c1ccc(Cl)c([N+](=O)[O-])c1 [DNCB, 2,4-dinitrochlorobenzene]", 6.91]
]}

###

Below: a set of entries, each annotated with reported viability at 48 h, 3.90625 μg/mL.
# protocol-details: CCK-8 cell viability of THP-1 cells after 48 h compound treatment in HaCaT/THP-1 co-culture
# Assay type: cell-based, human
# condition-info: human, THP-1 cells in co-culture with HaCaT cells, 3.90625 μg/mL, 48 h, THP-1, individual replicate values

{"columns": ["molecule", "viability at 48 h, 3.90625 μg/mL"],
 "data": [
  ["O=c1c(-c2ccccc2)c1-c1ccccc1 [diphenylcyclopropenone, Diphenylcyclopropenone]", "36.8%"],
  ["N#CCCC(Br)(C#N)CBr (centres unmarked) [bromoml, 1,2-dibromo-2,4-dicyanobutane]", "100%"],
  ["CC(C)CCCC(C)CCCC(C)CCCCC(C)CCCC(C)CCCC(C)C (centres unmarked) [squalane, Squalane]", "85.4%"],
  ["CC(C)(C)c1cc(O)ccc1O [THBQ, Tert-butylhydroquinone]", "97.4%"],
  ["Sc1nc2ccccc2s1 [2-mercaptobenzothiazole]", "77.2%"],
  ["O=CCc1ccccc1 [phenylacetaldehyde, Phenylacetaldehyde]", "84.7%"],
  ["OCC(O)CO [glycerol, Glycerol]", "79.1%"],
  ["Oc1cccc(O)c1 [resorcinol, Resorcinol]", "99.3%"]
]}
